B1: TOR1AIP2 (parent)
chain: YKYCDHENAAFKDVALVLTVLLEE

Variants of: B1
assay_comment: protein stability index of a GFP-peptide fusion (GPS, HEK-293T) (PSI 1-6); higher = more stable;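 further: lentivirally expressed fusions sorted by FACS into six bins by GFP to DsRed ratio, PSI derived from sequencing read proportions per bin multiplied by bin number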
test_conditions: c terminus: a fixed tail appended
Kindly supply the reported protein stability index values for the records listed here.
Number, no unit, nothing else.

Exercise: Name the recorded protein stability index for `Y3A` .
Key: 3.02

Exercise: Name the recorded protein stability index for `T19L` .
Key: 3.88

Exercise: Name the recorded protein stability index for `K2W` .
Key: 1.98

Exercise: Name the recorded protein stability index for `L18A` .
Key: 1.91

Exercise: Name the recorded protein stability index for `L18Q` .
Key: 3.16

Exercise: Name the recorded protein stability index for `K12Y` .
Key: 2.97

Exercise: Name the recorded protein stability index for `L18P` .
Key: 3.09

Exercise: Name the recorded protein stability index for `A10G` .
Key: 2.42

Exercise: Name the recorded protein stability index for `L16R` .
Key: 1.4

Exercise: Name the recorded protein stability index for `V20N` .
Key: 2.29

Exercise: Name the recorded protein stability index for `E24N` .
Key: 3.74

Exercise: Name the recorded protein stability index for `F11S` .
Key: 2.04

Exercise: Name the recorded protein stability index for `D5P` .
Key: 3.2

Exercise: Name the recorded protein stability index for `A10Y` .
Key: 3.38

Exercise: Name the recorded protein stability index for `K12Q` .
Key: 3.33

Exercise: Name the recorded protein stability index for `L18D` .
Key: 4.76

Exercise: Name the recorded protein stability index for `L22A` .
Key: 3.63

Exercise: Name the recorded protein stability index for `L16K` .
Key: 2.72

Exercise: Name the recorded protein stability index for `Y3C` .
Key: 1.51

Exercise: Name the recorded protein stability index for `F11Q` .
Key: 2.6

Exercise: Name the recorded protein stability index for `V17W` .
Key: 2.31

Exercise: Name the recorded protein stability index for `Y1R` .
Key: 2.28

Exercise: Name the recorded protein stability index for `V17Y` .
Key: 3.19

Exercise: Name the recorded protein stability index for `C4D` .
Key: 1.05

Exercise: Name the recorded protein stability index for `L22H` .
Key: 2.53

Exercise: Name the recorded protein stability index for `L22D` .
Key: 2.07

Exercise: Name the recorded protein stability index for `T19R` .
Key: 4.55

Exercise: Name the recorded protein stability index for `A15G` .
Key: 3.58

Exercise: Name the recorded protein stability index for `D5S` .
Key: 2.61

Exercise: Name the recorded protein stability index for `N8V` .
Key: 1.81

Exercise: Name the recorded protein stability index for `A15E` .
Key: 1

Exercise: Name the recorded protein stability index for `A15T` .
Key: 3.21

Exercise: Name the recorded protein stability index for `E7P` .
Key: 3.94

Exercise: Name the recorded protein stability index for `A10S` .
Key: 1.98

Exercise: Name the recorded protein stability index for `V20Y` .
Key: 3.45

Exercise: Name the recorded protein stability index for `E23L` .
Key: 5.46

Exercise: Name the recorded protein stability index for `L21T` .
Key: 4.25

Exercise: Name the recorded protein stability index for `V20G` .
Key: 2.83

Exercise: Name the recorded protein stability index for `A15S` .
Key: 2.69
